- Tested on: CAKI-1 renal
- assay-summary: NCI tumour cell line growth inhibition, 48 h
measurement-name: TGI

[O]=[V]([OH])([OH])[OH] : 70.6 µM
Cc1ccc(S(=O)(=O)NCCCCC(N)C(=O)O)cc1 (stereo unspecified) : > 100 µM
CCN(CC)c1ccc2nc3ccc(=[N+](CC)CC)cc-3oc2c1 : > 31.8 µM
COc1ccc(Nc2cnc3cc(N)cc(N)c3n2)cc1 : 64.9 µM
O=C1CC(c2ccc(Cl)cc2)=Nc2ccccc2N1 : > 100 µM

Looking for the measured TGI of `C=CCC(CCC(C)=O)(C(=O)OCC)C(=O)OCC` , can you help?
> 100 µM

Looking for the measured TGI of COC(=O)[C@@]12OC[C@]34C([C@@H](O)C1O)[C@@]1(C)CC(=O)C(OC(=O)CC(C)C(F)(F)F)=C(C)C1C[C@H]3OC(=O)[C@H](O)[C@H]42 (stereo partly specified) , can you help?
> 62.5 µM

Looking for the measured TGI of Cc1ccc(S(=O)(=O)OC2CC(C(C)(C)C)CCC2c2ccccc2)cc1 (stereo unspecified) , can you help?
> 100 µM

Looking for the measured TGI of CN1CCOC(C(NC(=O)c2ccccc2)c2ccccc2)C1=O (stereo unspecified) , can you help?
> 100 µM

Looking for the measured TGI of O=C1C2C3C=CC(C2C(=O)N1CO)C1C2C(=O)N(CO)C(=O)C2C31 (stereo unspecified) , can you help?
> 100 µM

Looking for the measured TGI of `Cc1cccc(Cn2cc(CO)c3cnccc32)c1` , can you help?
> 100 µM

====

- Tested on: CCRF-CEM leukemia
- assay-summary: NCI tumour cell line growth inhibition, 48 h
measurement-name: TGI

Looking for the measured TGI of `[O]=[V]([OH])([OH])[OH]` , can you help?
> 100 µM

Looking for the measured TGI of COc1ccc2nc3cc(Cl)ccc3c(NC(C)CCCN(CCCl)CCCl)c2c1 (stereo unspecified) , can you help?
1.12 µM

Looking for the measured TGI of `CCOC(=O)c1c(NC(=O)c2ccccc2)c(C#N)c2n1CCCCC2` , can you help?
> 100 µM

Looking for the measured TGI of `COc1cc(OC)c(OC)cc1/C=C/c1nc2ccccc2s1` , can you help?
> 100 µM

Looking for the measured TGI of `CC(C)(C)OC(=O)N(CCCCNC(=O)C(F)(F)F)CCCNC(=O)C(F)(F)F` , can you help?
> 100 µM

Looking for the measured TGI of `CC(=O)c1ccc(Nc2c3c(nc4ccccc24)CCCC3)cc1` , can you help?
> 100 µM

====

- Tested on: HL-60(TB) leukemia
- assay-summary: NCI tumour cell line growth inhibition, 48 h; in the data active = GI50 below about 0.43 µM; inactive = the rest
# output must be one of true for active, false for inactive

COc1cc(-c2nccc3[nH]c(-c4ccc5cc[nH]c5c4)nc23)cc(OC)c1OC : true
Nc1nccc(-c2c(-c3ccc(F)cc3)nn3cc(C(F)(F)F)ccc23)n1 : false

Given `OCCCCC#Cc1ccccc1C#Cc1cccc(C(F)(F)F)c1` , state the outcome it received in this test.
false

Given `C#Cc1ccc(-n2c(/C=C/c3ccc(O)cc3)nc3ncccc3c2=O)cc1` , state the outcome it received in this test.
false

Given CSc1nc2nc(-c3ccccc3)c(C)c-2c2n1C(C)C(=O)N2 (stereo not drawn) , state the outcome it received in this test.
false

Given `O=C(c1cccs1)c1c(C(F)(F)F)n([O-])c2cc(Cl)c(Cl)cc2[n+]1=O` , state the outcome it received in this test.
true

====

- System: SN12C renal
- assay-summary: NCI tumour cell line growth inhibition, 48 h
measurement-name: TGI

Example entries and their recorded answers appear below.
Cn1c2ccccc2c(=O)c2c(O)cc3c(c21)C1OCC(C)(O)C1O3 (stereo unspecified) : > 100 µM
CC(C)[C@@H]1CC[C@]2(CO2)[C@@H]2C(=O)OCC(C(=O)O)=C[C@H]21 : > 20.1 µM
OCCCCC#Cc1ccccc1C#Cc1cccc(C(F)(F)F)c1 : 33 µM
COC(=O)c1c(C)cccc1/C=C1\Cc2ccc(C)c(C)c2C1=O : > 100 µM
O=C(CCCC(=O)Nc1ccc(Cl)cc1Cl)CC(=O)c1ccc2ccccc2c1 : > 100 µM

Consider now this further molecule.
Looking for the measured TGI of `CCc1cccc(CC)c1NC(=O)/C(Cl)=C(/Cl)C(=O)O` , can you help?
45.9 µM

====

- System: NCI-H23 lung
- assay-summary: NCI tumour cell line growth inhibition, 48 h
measurement-name: TGI

COc1cc(-c2nccc3[nH]c(-c4ccc5cc[nH]c5c4)nc23)cc(OC)c1OC : 4.2 µM
COC1(OC)c2occc2C(=N)c2ccc(=O)oc21 : > 100 µM
CCCCCCCCCCCC[C@@H](O)[C@H]1CC[C@H]([C@H](O)CC[C@H](O)[C@@H]2CC[C@@H](CCCCCCCC3=C[C@H](C)OC3=O)O2)O1 : > 50 µM
CC(C)(CN1CCCCC1)C(=O)/C=C/c1ccc(Br)cc1 : 9.11 µM
CCOC(=O)c1c(NC(=O)c2ccccc2)c(C#N)c2n1CCCCC2 : > 100 µM

Consider now this further molecule.
Looking for the measured TGI of `O=C1N[C@@H]2CCCC[C@@H]2C12CCCCC2` , can you help?
> 100 µM

====

- Test system: SNB-75 CNS
- assay-summary: NCI tumour cell line growth inhibition, 48 h
# TGI listing for each entry below

Cc1ccc(S[C@@](C=O)(NC(=O)OCc2ccccc2)C(F)(F)F)cc1 : 80 µM

TGI of `O=C(NCCN(CCNC(=O)c1cccc(O)c1O)CCNC(=O)c1cccc(O)c1O)c1cccc(O)c1O` on SNB-75 CNS?
> 100 µM

TGI of O=C1NC(=O)C2C(=O)NC(=O)C1C2Cc1ccco1 (stereo not given) on SNB-75 CNS?
> 100 µM

TGI of `O=C(Nn1c(-c2ccccc2)nc2ccccc2c1=O)c1ccc(Cl)cc1` on SNB-75 CNS?
> 100 µM

====

- System: LOX IMVI melanoma
- assay-summary: NCI tumour cell line growth inhibition, 48 h
measurement-name: TGI (µM)
Value expressed in µM; do not type the unit.

CCCCCC/C=C\CCCCCCCCC(=O)c1cccc(OC)c1OC : 32.9
COc1ccc(CCCCNCc2cccc(CNCCCCc3ccc(OC)cc3)c2)cc1 : 3.23
C[C@H]1CC[C@@]2(OC1)O[C@H]1C[C@H]3[C@@H]4CC[C@@H]5C[C@@H](OC6OC(CO)C(O)C(O)C6OC6OC(CO)C(O)C(O)C6O)CC[C@]5(C)[C@H]4CC[C@]3(C)[C@H]1[C@@H]2C (stereo not given in full) : 3.75
COC12C(COC(=O)NCCO)C3=C(C(=O)C(C)=C(N)C3=O)N1CC1NC12 (stereo not given) : 64.7
CC(C)C(Cl)CCC(C)(Cl)C(=O)CBr (stereo not given) : 2.36

Consider now this further molecule.
Looking for the measured TGI of `O=C1CC(c2ccc(Cl)cc2)=Nc2ccccc2N1` , can you help?
58.8

====

# TGI listing for each entry below
- Test system: SF-295 CNS
- assay-summary: NCI tumour cell line growth inhibition, 48 h

CC(C)(C)OC(=O)N(CCCCNC(=O)C(F)(F)F)CCCNC(=O)C(F)(F)F : > 100 µM
N#Cc1sc2nc3ccccc3n2c1N : > 100 µM

Looking for the measured TGI of `COCCN(Cc1ccc(F)cc1)c1ccc(CO)c(Cl)c1` , can you help?
> 100 µM

Looking for the measured TGI of COc1cc(C2c3cc4c(cc3OC(NN)C2C)OCO4)cc(OC)c1O (stereo not drawn) , can you help?
14.7 µM

Looking for the measured TGI of NC(N)=NCCCC(NCc1c2ccccc2nc2ccccc12)C(=O)O (stereo not drawn) , can you help?
> 100 µM

Looking for the measured TGI of `C(=Nc1nc(SCc2ccccc2)nc2[nH]ncc12)c1cccs1` , can you help?
> 100 µM

Looking for the measured TGI of `COC1(OC)c2occc2C(=N)c2ccc(=O)oc21` , can you help?
> 100 µM

Looking for the measured TGI of `O=c1c(-c2ccccc2)nnc2n(Cc3ccccc3)c3ccccc3n12` , can you help?
> 100 µM

Looking for the measured TGI of `Cc1ccc(N=N/C(=N/NC(=O)c2ccccc2)c2ccc(N(CCC#N)CCC#N)cc2C)cc1` , can you help?
> 100 µM

Looking for the measured TGI of `Cc1cc(Br)c(NC(=O)c2c(-c3c(Cl)cccc3Cl)noc2C)c(Br)c1` , can you help?
> 100 µM

Looking for the measured TGI of `COc1ccc(-c2[nH]c3ccc(OC)cc3c2C=C(C#N)C#N)cc1` , can you help?
> 100 µM

Looking for the measured TGI of `O=S(=O)(/N=C(\NO)Nc1ccc(Cl)cc1)c1cc(C(F)(F)F)cc(C(F)(F)F)c1` , can you help?
36.4 µM

Looking for the measured TGI of `COc1ccc2ccccc2c1C1=NC(C)(C)CO1` , can you help?
> 100 µM

Looking for the measured TGI of `COC(=O)[C@H](Cc1ccccc1)NC(=O)c1ccc(CNC(=O)/C=C/c2csc(-c3ccccc3)n2)cc1` , can you help?
25.8 µM
